- PROCEDURE TEXT: total protein half-life in vivo (active degradation + dilution); higher = more stable protein
- TEST PARAMETERS: wild type E. coli NCM3722; growth: C-lim chemostat; doubling time 12 h
// reported total protein half-life in vivo for each item listed
QUANTITY: total protein half-life in vivo (h)

[[record]]
ordered_residues = "MNKRDAINHIRQFGGRLDRFRKSVGGSGDGGRNAPKRAKSSPKPVNRKTNVFNEQVRYAFHGALQDLKSKPFATFLTVMVIAISLTLPSVCYMVYKNVNQAATQYYPSPQITVYLQKTLDDDAAAGVVAQLQAEQGVEKVNYLSREDALGEFRNWSGFGGALDMLEENPLPAVAVVIPKLDFQGTESLNTLRDRITQINGIDEVRMDDSWFARLAALTGLVGRVSAMIGVLMVAAVFLVIGNSVRLSIFARRDSINVQKLIGATDGFILRPFLYGGALLGFSGALLSLILSEILVLRLSSAVAEVAQVFGTKFDINGLSFDECLLLLLVCSMIGWVAAWLATVQHLRHFTPE [P0AC30]"
quantity = "total protein half-life in vivo"
data_value = 12.5

[[record]]
ordered_residues = "MLARGKTNLKIEEIRMHKHHEIHRVKPLMPALCRIRQGKKVINWETHTLTVDNNQIILFPCGYEFYIENYPEAGLYLAEMLYLPIDLIESFQKLYTVTDQIRNKTSFFLPQNPELIYCWEQLKTSVSRGFSTKIQEHLAMGVLLSLGVNHVNHLLLSYSKQSLISRCYNLLLSEPGTKWTANKVARYLYISVSTLHRRLASEGVSFQSILDDVRLNNALSAIQTTVKPISEIARENGYKCPSRFTERFHNRFNITPREIRKASRE"
quantity = "total protein half-life in vivo"
data_value = 6.07

[[record]]
ordered_residues = "MSCEELEIVWNNIKAEARTLADCEPMLASFYHATLLKHENLGSALSYMLANKLSSPIMPAIAIREVVEEAYAADPEMIASAACDIQAVRTRDPAVDKYSTPLLYLKGFHALQAYRIGHWLWNQGRRALAIFLQNQVSVTFQVDIHPAAKIGRGIMLDHATGIVVGETAVIENDVSILQSVTLGGTGKSGGDRHPKIREGVMIGAGAKILGNIEVGRGAKIGAGSVVLQPVPPHTTAAGVPARIVGKPDSDKPSMDMDQHFNGINHTFEYGDGI [P0A9D4]"
quantity = "total protein half-life in vivo"
data_value = 9.82


* * *

Reported total protein half-life in vivo is given for each of the following sequences.
- PROCEDURE TEXT: total protein half-life in vivo (active degradation + dilution); higher = more stable protein
- TEST PARAMETERS: wild type E. coli NCM3722; growth: C-lim chemostat; doubling time 6 h
QUANTITY: total protein half-life in vivo

[[record]]
ordered_residues = "MKTPLVTREGYEKLKQELNYLWREERPEVTKKVTWAASLGDRSENADYQYNKKRLREIDRRVRYLTKCLENLKIVDYSPQQEGKVFFGAWVEIENDDGVTHRFRIVGYDEIFGRKDYISIDSPMARALLKKEVGDLAVVNTPAGEASWYVNAIEYVKP"
quantity = "total protein half-life in vivo"
data_value = "4.63 h"

[[record]]
ordered_residues = "MKKLKLHGFNNLTKSLSFCIYDICYAKTAEERDGYIAYIDELYNANRLTEILSETCSIIGANILNIARQDYEPQGASVTILVSEEPVDPKLIDKTEHPGPLPETVVAHLDKSHICVHTYPESHPEGGLCTFRADIEVSTCGVISPLKALNYLIHQLESDIVTIDYRVRGFTRDINGMKHFIDHEINSIQNFMSDDMKALYDMVDVNVYQENIFHTKMLLKEFDLKHYMFHTKPEDLTDSERQEITAALWKEMREIYYGRNMPAV [P0A7F6]"
quantity = "total protein half-life in vivo"
data_value = "4.99 h"

[[record]]
ordered_residues = "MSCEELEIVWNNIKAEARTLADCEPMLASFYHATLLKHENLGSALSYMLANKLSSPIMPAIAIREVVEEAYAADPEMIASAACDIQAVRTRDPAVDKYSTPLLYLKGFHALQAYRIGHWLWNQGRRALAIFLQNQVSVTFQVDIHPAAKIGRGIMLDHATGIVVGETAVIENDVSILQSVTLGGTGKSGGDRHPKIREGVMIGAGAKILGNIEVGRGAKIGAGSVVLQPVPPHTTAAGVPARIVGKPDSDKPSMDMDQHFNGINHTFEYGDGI [P0A9D4]"
quantity = "total protein half-life in vivo"
data_value = "5.49 h"

[[record]]
ordered_residues = "MEISFTRVALLAAALFFVGCDQKPQPAKTHATEVTVLEGKTMGTFWRASIPGIDAKRSAELKEKIQTQLDADDQLLSTYKKDSALMRFNDSQSLSPWPVSEAMADIVTTSLRIGAKTDGAMDITVGPLVNLWGFGPEQQPVQIPSQEQIDAMKAKTGLQHLTVINQSHQQYLQKDLPDLYVDLSTVGEGYAADHLARLMEQEGISRYLVSVGGALNSRGMNGEGLPWRVAIQKPTDKENAVQAVVDINGHGISTSGSYRNYYELDGKRLSHVIDPQTGRPIEHNLVSVTVIAPTALEADAWDTGLMVLGPEKAKEVVRREGLAVYMITKEGDSFKTWMSPQFKSFLVSEKN [P0AB85]"
quantity = "total protein half-life in vivo"
data_value = "6.95 h"

[[record]]
ordered_residues = "MQENQQITKKEQYNLNKLQKRLRRNVGEAIADFNMIEEGDRIMVCLSGGKDSYTMLEILRNLQQSAPINFSLVAVNLDQKQPGFPEHVLPEYLEKLGVEYKIVEENTYGIVKEKIPEGKTTCSLCSRLRRGILYRTATELGATKIALGHHRDDILQTLFLNMFYGGKMKGMPPKLMSDDGKHIVIRPLAYCREKDIQRFADAKAFPIIPCNLCGSQPNLQRQVIADMLRDWDKRYPGRIETMFSAMQNVVPSHLCDTNLFDFKGITHGSEVVNGGDLAFDREEIPLQPACWQPEEDENQLDELRLNVVEVK"
quantity = "total protein half-life in vivo"
data_value = "2.26 h"

[[record]]
ordered_residues = "MMMGEVQSLPSAGLHPALQDALTLALAARPQEKAPGRYELQGDNIFMNVMTFNTQSPVEKKAELHEQYIDIQLLLNGEERILFGMAGTARQCEEFHHEDDYQLCSTIDNEQAIILKPGMFAVFMPGEPHKPGCVVGEPGEIKKVVVKVKADLMA"
quantity = "total protein half-life in vivo"
data_value = "5.51 h"

[[record]]
ordered_residues = "MRLTSKGRYAVTAMLDVALNSEAGPVPLADISERQGISLSYLEQLFSRLRKNGLVSSVRGPGGGYLLGKDASSIAVGEVISAVDESVDATRCQGKGGCQGGDKCLTHALWRDLSDRLTGFLNNITLGELVNNQEVLDVSGRQHTHDAPRTRTQDAIDVKLRA [P0AGK8]"
quantity = "total protein half-life in vivo"
data_value = "1.76 h"

[[record]]
ordered_residues = "MAHRPRWTLSQVTELFEKPLLDLLFEAQQVHRQHFDPRQVQVSTLLSIKTGACPEDCKYCPQSSRYKTGLEAERLMEVEQVLESARKAKAAGSTRFCMGAAWKNPHERDMPYLEQMVQGVKAMGLEACMTLGTLSESQAQRLANAGLDYYNHNLDTSPEFYGNIITTRTYQERLDTLEKVRDAGIKVCSGGIVGLGETVKDRAGLLLQLANLPTPPESVPINMLVKVKGTPLADNDDVDAFDFIRTIAVARIMMPTSYVRLSAGREQMNEQTQAMCFMAGANSIFYGCKLLTTPNPEEDKDLQLFRKLGLNPQQTAVLAGDNEQQQRLEQALMTPDTDEYYNAAAL"
quantity = "total protein half-life in vivo"
data_value = "1.3 h"

[[record]]
ordered_residues = "MAISSRNTLLAALAFIAFQAQAVNVTVAYQTSAEPAKVAQADNTFAKESGATVDWRKFDSGASIVRALASGDVQIGNLGSSPLAVAASQQVPIEVFLLASKLGNSEALVVKKTISKPEDLIGKRIAVPFISTTHYSLLAALKHWGIKPGQVEIVNLQPPAIIAAWQRGDIDGAYVWAPAVNALEKDGKVLTDSEQVGQWGAPTLDVWVVRKDFAEKHPEVVKAFAKSAIDAQQPYIANPDVWLKQPENISKLARLSGVPEGDVPGLVKGNTYLTPQQQTAELTGPVNKAIIDTAQFLKEQGKVPAVANDYSQYVTSRFVQ"
quantity = "total protein half-life in vivo"
data_value = "5.75 h"

[[record]]
ordered_residues = "MPTKPPYPREAYIVTIEKGKPGQTVTWYQLRADHPKPDSLISEHPTAQEAMDAKKRYEDPDKE [P0AAN5]"
quantity = "total protein half-life in vivo"
data_value = "3.08 h"

[[record]]
ordered_residues = "MMIRERIEEKLRAAFQPVFLEVVDESYRHNVPAGSESHFKVVLVSDRFTGERFLNRHRMIYSTLAEELSTTVHALALHTYTIKEWEGLQDTVFASPPCRGAGSIA [P0ABE2]"
quantity = "total protein half-life in vivo"
data_value = "2.52 h"

[[record]]
ordered_residues = "MKRQKRDRLERAHQRGYQAGIAGRSKEMCPYQTLNQRSQWLGGWREAMADRVVMA [P0AFW2]"
quantity = "total protein half-life in vivo"
data_value = "0.0712 h"

[[record]]
ordered_residues = "MSNQEPATILLIDDHPMLRTGVKQLISMAPDITVVGEASNGEQGIELAESLDPDLILLDLNMPGMNGLETLDKLREKSLSGRIVVFSVSNHEEDVVTALKRGADGYLLKDMEPEDLLKALHQAAAGEMVLSEALTPVLAASLRANRATTERDVNQLTPRERDILKLIAQGLPNKMIARRLDITESTVKVHVKHMLKKMKLKSRVEAAVWVHQERIF [P0AF28]"
quantity = "total protein half-life in vivo"
data_value = "5.03 h"

